Hey, just so you know, these numbers are from paper PMC7339578.

test: Plasma pharmacokinetics in rats after a 30-min intravenous infusion of Kang-Ai injection; assay type: in vivo, Sprague–Dawley rats; settings: male, Sprague-Dawley; rat plasma; 30-min iv infusion of Kang-Ai injection 6 mL/kg; read-out: Cmax
Please provide measured Cmax for the entries that follow.
One number for each entry, in nM.

The cases that follow already have their Cmax on record.
Compound | Result Units | Result Number
CC(C)=CCC[C@](C)(O[C@@H]1O[C@H](CO[C@@H]2OC[C@H](O)[C@H](O)[C@H]2O)[C@@H](O)[C@H](O)[C@H]1O)[C@H]1CC[C@]2(C)[C@@H]1[C@H](O)C[C@@H]1[C@@]3(C)CC[C@H](O[C@@H]4O[C@H](CO)[C@@H](O)[C@H](O)[C@H]4O[C@@H]4O[C@H](CO)[C@@H](O)[C@H](O)[C@H]4O)C(C)(C)[C@@H]3CC[C@]12C [Compound D4, Ginsenoside Rb2] | nM | 301
CC(C)=CCC[C@](C)(O[C@@H]1O[C@H](CO)[C@@H](O)[C@H](O)[C@H]1O)[C@H]1CC[C@]2(C)[C@@H]1[C@H](O)C[C@@H]1[C@@]3(C)CC[C@H](O)C(C)(C)[C@@H]3[C@@H](O[C@@H]3O[C@H](CO)[C@@H](O)[C@H](O)[C@H]3O[C@@H]3O[C@@H](C)[C@H](O)[C@@H](O)[C@H]3O)C[C@]12C [Compound C9, Ginsenoside Re] | nM | 1340
CC(C)=CCC[C@](C)(O[C@@H]1O[C@H](CO)[C@@H](O)[C@H](O)[C@H]1O)[C@H]1CC[C@]2(C)[C@@H]1[C@H](O)C[C@@H]1[C@@]3(C)CC[C@H](O[C@@H]4O[C@H](CO)[C@@H](O)[C@H](O)[C@H]4O[C@@H]4O[C@H](CO)[C@@H](O)[C@H](O)[C@H]4O)C(C)(C)[C@@H]3CC[C@]12C [Compound D2, Ginsenoside Rd] | nM | 766
CC(C)=CCC[C@](C)(O[C@@H]1O[C@H](CO[C@@H]2O[C@H](CO)[C@@H](O)[C@H](O)[C@H]2O)[C@@H](O)[C@H](O)[C@H]1O)[C@H]1CC[C@]2(C)[C@@H]1[C@H](O)C[C@@H]1[C@@]3(C)CC[C@H](O[C@@H]4O[C@H](CO)[C@@H](O)[C@H](O)[C@H]4O[C@@H]4O[C@H](CO)[C@@H](O)[C@H](O)[C@H]4O)C(C)(C)[C@@H]3CC[C@]12C [Compound D5, Ginsenoside Rb1] | nM | 497
CC(C)=CCC[C@](C)(O[C@@H]1O[C@H](CO[C@@H]2O[C@@H](CO)[C@H](O)[C@H]2O)[C@@H](O)[C@H](O)[C@H]1O)[C@H]1CC[C@]2(C)[C@@H]1[C@H](O)C[C@@H]1[C@@]3(C)CC[C@H](O[C@@H]4O[C@H](CO)[C@@H](O)[C@H](O)[C@H]4O[C@@H]4O[C@H](CO)[C@@H](O)[C@H](O)[C@H]4O)C(C)(C)[C@@H]3CC[C@]12C [Compound D3, Ginsenoside Rc] | nM | 877

// next entry
[ask] Consider the compound shown here: CC(C)=CCC[C@](C)(O[C@@H]1O[C@H](CO)[C@@H](O)[C@H](O)[C@H]1O)[C@H]1CC[C@]2(C)[C@@H]1[C@H](O)C[C@@H]1[C@@]3(C)CC[C@H](O)C(C)(C)[C@@H]3[C@@H](O[C@@H]3O[C@H](CO)[C@@H](O)[C@H](O)[C@H]3O)C[C@]12C [Compound C6, Ginsenoside Rg1] What is its recorded Cmax?
[reply] 1570
